All figures here come from the supplement of paper PMC12042874.

# amyloid nucleation score values compiled below
- assay-overview: amyloid nucleation score (Sup35N fusion, yeast selection) (log enrichment); library NNK1; higher = more nucleation; inactive = no reads after selection;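 note: zero at mode of non-aggregating sequences after 7 days selection at 30°C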
Give the value as a plain number.

SHNGCKIWGMDNLIVH; -0.616
SCSPGTYSWFNWWYKSPGVE; -0.021
VTNYGYDLFVLILDGAMNLS; 0.407
QGSPARMCVL; 0.629
PYKLFHVVSCCRTQGDNVAK; -0.813

Reported amyloid nucleation score for PYVFPVRYYSTILWYAIYVR : what is it? 0.558

Field entry: CLLIVRISNSKFVVPPTVFA 0.608

Param item: GQWGVVHIQQGVQYCATIRG 0.331

Query CWLMGMSGPPFDRVWGVVIR next -0.086

* * *

- assay-overview: amyloid nucleation score (Sup35N fusion, yeast selection) (log enrichment); library NNK3; higher = more nucleation; inactive = no reads after selection
measured-quantity: amyloid nucleation score

Worked cases, answers included:
FVCLKNFIFNRYKADGD; 1.17
LFLVIYYVFMYVA; inactive
VSTGSAGSLWSV; inactive
YQRGVRFRSHWMRSGKWDHF; inactive
NHYCDFAVWSTFNLTLHHSL; inactive
TQLFGGFPTEGQMMYPPRSS; inactive
RSRLCWED; -0.029
CMDKFWCVVYA; -0.416

# get_value(readout='amyloid nucleation score', item= HRIRVVENLPHCVLSSRMPL ) inactive

Then this substance: MESDCQRDHNFIRIKIKIGE 1.65

Can you handle NFIIWWVLDISVERIRINEV next? inactive

// repeat for SGVCYFHARTRKSSSLRELV and report 1.2

Please do the same for VSCRQLYQSIGGRKPDRRFI as well. inactive

Another: FLRSSVCA inactive

Another substance to check: GVVVIPS 0.933

Same lookup for FTAFMFS , please. inactive

Again, but for HTGMHCTMGESRTSV 0.375

* * *

- assay-overview: amyloid nucleation score (Sup35N fusion, yeast selection) (log enrichment); library NNK2; higher = more nucleation; inactive = no reads after selection
measured-quantity: amyloid nucleation score
Answer field: number only, no words.

VFQIHYMVGNVVCTWSWPNV; 4.27
GYSGVLILWEVVICWYGVTG; -0.313
WQRRIGKFCDKQWSFQMMVH; -0.021
HFMIVSLDGNHVMTTAAGVA; 0.233
ASPLQPLSGYVIVRVAPSIT; 0.266

Which amyloid nucleation score value belongs to QRCWRSGTFSGM ? -0.107

Also LMTSPSFIYVWSYTGFRMFG , if possible. 4.98

Same for DLGIYSLTNFKMLPST 0.544

// same read-out, input: TIFWLTISCQRYRD 1.46

And GILYFLFVLSSVGDVCRLLV ? -0.709

Do the same for EIIFVMPVFYIFKTLCLLSA please 0.332

* * *

- assay-overview: amyloid nucleation score (Sup35N fusion, yeast selection) (log enrichment); library NNK3; higher = more nucleation; inactive = no reads after selection
measured-quantity: amyloid nucleation score

Some solved entries appear below for comparison.
LSGPRYLVVKSGCACRDSFR; inactive
TTDCIESVRDG; -0.659
ISWNLRGVVLLTYTICSWCI; inactive
FLIDNCYWYPHCAPIVAPWL; inactive
RAYFGCFQGFILLFSYLMC; inactive
HEQDVAPKCWMYVELNQLGW; 0.688
VIFYCFSRILTYKSIVVG; inactive
YLVLKDTRYAYTLLRSMLSA; inactive

Now examine the next entry.
Any idea what amyloid nucleation score was measured for KALVGKYFKMCRTCDRYFYC ? -0.416

* * *

- assay-overview: amyloid nucleation score (Sup35N fusion, yeast selection) (log enrichment); library NNK1; higher = more nucleation; inactive = no reads after selection
measured-quantity: amyloid nucleation score
In your answer, state the number alone without any accompanying words.

For orientation, consider the following solved cases.
VSGIVPDDLSVFDVHSKYV; 0.455
NIIDVTSDSCKPYHILEAIV; 0.015
WRESSGTNLSAFVPKDM; -0.675
FKDLNIWDWKNGAHITNCLG; 1.05
KDTQCHIARATRRGVRGNVF; -0.48
SDAGARKIIFCFEIITQHPV; -0.235

Find the recorded amyloid nucleation score belonging to EGSIFCMRNCRTIWCSEE and report it. -0.359

Would you mind doing VMCVTIMSVFWNGLRNVEAM as well? 0.977

Field entry: ARYPRGDGVGDMSSRLIVVY 1.26

Same read-out for ASWTHVIFTYPLGKA ? 0.035

Moving on to the next substance: IACFFQT 1.66

Same lookup for LIEGRGIRGLVCCFSISFA , please. 8.38

Here is the next substance: SCPVPKLLAIGLSHVRSFGF -0.47

Repeat for the following substance: DRAWTGVWDDESPTT -0.383

Please answer likewise for SCQATLLFLSYSSNVGLIST -0.267

Another substance: YLDGVIWFLK -0.591

Now this one: DKSFDFVLGSEACMVVEVGN -0.496

And what about the substance RIPASFRITYVDSIKCKPF ? 4.15

Continue with HNGRVFVMRWLYGVLGECG -1.31

NKMGFSRCSLQGDVKFF , same question. -0.482

Please do the same for FSILILRHCVDLRYRVTSTM as well. 0.446

Repeat with IYYTSWYINAYLCGHMPVRG 2.52

Item: PWVTLVRAMCMFINVDLVSR 0.201

* * *

- assay-overview: amyloid nucleation score (Sup35N fusion, yeast selection) (log enrichment); library NNK2; higher = more nucleation; inactive = no reads after selection
measured-quantity: amyloid nucleation score
Number, no unit, nothing else.

These solved cases illustrate the format of a correct answer.
TSGMNDITR; -0.093
RSQTSWLKDLWQRSLTSDCS; 4.62
VEMRLGRDEIFNRHQKGIYA; 2.02
LNSYFTFVWTSVFGCVDPYE; 5.72
YWTPYCIVIH; -0.965
LMMSVWF; 5.48
VGFRRVTNMDRCSFSLCCCW; 4.56
CALFLFRKVLVLIT; -1.48

Param item = THMSEDGFVL ; retrieve measured amyloid nucleation score. 0.072

Proceed to LSALCGIGCDCLPTLTKLIV -0.089

Next substance: SVSQPYSKSVGLRGRGKQGQ 0.737

Then this substance: AWRDTHWTASCRSGSRRILS 4.59

// same read-out, input: EMWSISIKISGR 0.763

One more substance: VRLTMQYGHVYPGCSLLPYV 4.75

Same again, this time with LILSSSSLVGVALRRVYCVT -0.809

* * *

- assay-overview: amyloid nucleation score (Sup35N fusion, yeast selection) (log enrichment); library NNK1; higher = more nucleation; inactive = no reads after selection
measured-quantity: amyloid nucleation score
# answer = number (no unit)

Here are 6 substances together with their reported answers.
IIMVRLFSRNGVEDC; 1.61
LRFRMNSLLVKWFFP; -0.199
VRCTFLVKVDWTFYKASRPR; 0.087
YMYQIG; -0.691
HSYYGHPHTCFAMKEEVHVR; 0.035
LSNALS; 0.8

Could you tell me which amyloid nucleation score is on file for RWQAFGTELYGTSWSFREYG ? 0.148

Lookup EDTSMELWVSAGIRGGLPLV -1.13

Next up: FIYVDSGDKNGYCACDKFLP 6.06

Same again, this time with VYLKEEHGKFAGGPSPRCKP 0.274

Likewise for YPGEGEPKKYLPYNRLCWRS ? 1.08

Also FTNKFCFL ? 0.069

For SADPFVFVALQWNHGVGSWR then? 4.06

Subsequent entry: LRTNTWCYGESSRLWGWCGG 0.067

Quick one: AVQFCCWDMRTVIAS 5.76

Now try LSGTNASIWY . -0.212

Now this one: IFALWTHKTPRQIAPLGTQK -0.835

* * *

- assay-overview: amyloid nucleation score (Sup35N fusion, yeast selection) (log enrichment); library NNK3; higher = more nucleation; inactive = no reads after selection
measured-quantity: amyloid nucleation score

Please review the entries below; each comes with its answer.
SQFDAYPCKMFHVYKNYP; inactive
MWVQEYKTNNGYSLA; inactive
PLDVNGYMNVTSGRRMCARR; inactive
SMKLLT; -0.254
ITFVYSS; inactive

Request the reported amyloid nucleation score associated with HEVAAPRRRHSSMLVAGSAG inactive

Then what about the substance PSLRLQTTDILHKNSNY ? inactive

LSGYYEQVVWVNRSSNSTMN , same question. inactive

What do we get for QTNLGPFVPSYGCFLCWMEG ? inactive

* * *

- assay-overview: amyloid nucleation score (Sup35N fusion, yeast selection) (log enrichment); library NNK3; higher = more nucleation; inactive = no reads after selection
measured-quantity: amyloid nucleation score

SVSYFWFARL; -0.005
TSQQHPASVSKGYMLRDG; inactive
VLSQRVPQMHMTNGVTEASV; inactive
NRYYPVGNYCARTWQTFTFL; inactive
FVKSVRYSL; 1.45

Look at this substance and give its reported amyloid nucleation score. VPDLYSTEDGFSCCVSEYCT inactive

# iterate: SMDVLRFDQYRWLYRVFNLH inactive

Now give it for NHYATFGCSVTFAIVNWSRF too. 1.86

Follow-up item: GINDLISSALNNSRRLRTVG inactive

Also LGVEVSMMTWCRMSSSMLMT ? inactive

Now consider FDLRSWCM . inactive

Please answer likewise for DLIRQRAETPKMVISWR inactive

Try this substance next: DFVDARFWQIFGFSNAEQGL inactive

Try this substance too: IHVDLYN inactive

Same question for GRIFYWRDMDTYQR please. inactive

Next entry: VQLFSQNALPMFNSWKYYDH inactive

And LFHIQNESGVSYIKWFSLSI ? 0.553

Entry to check: QIVRYASSQCDCRNFLSTVE inactive
